- systemTested: His-PDK1 (Homo sapiens, UniProt O15530)
- Construct: made in house; host or cells: Sf21 insect cells (baculovirus, pFASTBAC HTb)
- Sequence (O15530 whole entry): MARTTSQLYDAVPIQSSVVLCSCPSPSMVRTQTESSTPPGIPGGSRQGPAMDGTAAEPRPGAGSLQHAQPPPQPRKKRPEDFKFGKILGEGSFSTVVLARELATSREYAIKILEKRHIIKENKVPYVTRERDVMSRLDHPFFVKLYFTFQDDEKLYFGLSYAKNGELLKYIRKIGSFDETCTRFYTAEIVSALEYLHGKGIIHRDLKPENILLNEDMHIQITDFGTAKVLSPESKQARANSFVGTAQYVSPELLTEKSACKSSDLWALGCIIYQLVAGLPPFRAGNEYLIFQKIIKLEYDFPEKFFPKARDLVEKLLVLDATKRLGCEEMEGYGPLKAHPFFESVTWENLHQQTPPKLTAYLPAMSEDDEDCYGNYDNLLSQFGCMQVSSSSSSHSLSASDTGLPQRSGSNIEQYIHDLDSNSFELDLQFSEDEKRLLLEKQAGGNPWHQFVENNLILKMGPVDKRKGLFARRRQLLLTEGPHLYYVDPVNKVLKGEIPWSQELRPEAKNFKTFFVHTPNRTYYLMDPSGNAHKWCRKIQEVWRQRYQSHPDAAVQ
- measurementNotes: Surface Plasmon Resonance (BiaCore) binding of His-PDK1 to GST-PIF / Region B peptide
- conditionsUsed: His-PDK1 0.5 μM mixed with free peptide, injected over immobilised peptide; read-out: Kd from competition by addition of free peptide
Ends that are not written are not given here.
recordedEndpoint: Kd (nM)
Value expressed in nM; do not type the unit.

*Q* Find Kd for REPRILSEEEQEMFRDFDYIADWC [Region B peptide] on His-PDK1 (Homo sapiens, UniProt O15530) and write it down.
*A* 1500

Data origin, for the record: patent US20070196883A1
